testedSystem: human recombinant COX-2 (Homo sapiens)
Sequence (P35354 18-604): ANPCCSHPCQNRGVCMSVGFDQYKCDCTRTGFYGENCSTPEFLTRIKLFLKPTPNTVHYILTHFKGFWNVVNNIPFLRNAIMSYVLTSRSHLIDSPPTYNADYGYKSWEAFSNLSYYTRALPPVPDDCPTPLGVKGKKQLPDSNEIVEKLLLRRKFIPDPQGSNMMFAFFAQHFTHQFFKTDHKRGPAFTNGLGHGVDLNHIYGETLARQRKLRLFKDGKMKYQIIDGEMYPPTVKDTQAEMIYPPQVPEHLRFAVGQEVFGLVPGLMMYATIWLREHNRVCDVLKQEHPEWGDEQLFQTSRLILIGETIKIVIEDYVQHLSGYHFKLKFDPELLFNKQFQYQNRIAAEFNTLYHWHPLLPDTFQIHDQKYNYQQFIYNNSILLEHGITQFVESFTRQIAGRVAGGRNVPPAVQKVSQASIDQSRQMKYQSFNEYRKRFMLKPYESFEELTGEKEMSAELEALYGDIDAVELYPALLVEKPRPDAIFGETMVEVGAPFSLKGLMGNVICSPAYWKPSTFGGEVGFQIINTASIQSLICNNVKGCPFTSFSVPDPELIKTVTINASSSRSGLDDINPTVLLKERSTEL
protocolSummary: In vitro COX-2 inhibitory assay
Assay type: biochemical
In this section we review reported IC50 values for a set of compounds.
# number only, unit nM dropped from output

Worked set:
In [3]: df
Out[3]:
                            structurestring  propertymeasured  observedmeasurement
0  O=C(CSC1=N/C(=C\c2ccccc2)C(=O)N1c1ccccc1)NCc1ccccc1              IC50                   90
1  Cc1ccc(NC(=O)CSC2=N/C(=C\c3ccc(Cl)cc3)C(=O)N2c2ccccc2)cc1              IC50                  120
2  O=C(CSC1=N/C(=C\c2ccc(Cl)cc2)C(=O)N1c1ccccc1)NCc1ccccc1              IC50                  130
3  O=C(CSC1=N/C(=C\c2ccccc2)C(=O)N1c1ccccc1)Nc1ccccc1              IC50                  120
4  O=C(CSC1=N/C(=C\c2ccc(Cl)cc2)C(=O)N1c1ccccc1)Nc1ccc(Br)cc1              IC50                  180
5  COc1ccc(NC(=O)CSC2=N/C(=C\c3ccc(Cl)cc3)C(=O)N2c2ccccc2)cc1              IC50                  100

Note: attention shifts to another entry.
Find the recorded IC50 belonging to COc1ccc(NC(=O)CSC2=N/C(=C\c3ccccc3)C(=O)N2c2ccccc2)cc1 and report it.
80
